Experiment: Antagonist activity at CCR1 receptor in human THP1 cells assessed as inhibition of MCP3-induced chemotaxis after 60 mins
pIC50: −log10 of the molar value.
Assay endpoint: pIC50

INSERT INTO assay_data (structure_smiles_string, val) VALUES
  ('CC(C)[C@@H](NC(=O)NCC(C)(C)O)C(=O)N1CC[C@](O)(c2ccc(Cl)cc2)C(C)(C)C1', 8.03);

###

Assay: Antagonist activity at CCR1 receptor in human THP1 cells assessed as inhibition of LKN1-induced chemotaxis after 60 mins
Assay endpoint: IC50

INSERT INTO measurements (structure_smiles_string, val) VALUES
  ('CC(C)[C@@H](NC(=O)NCC(C)(C)O)C(=O)N1CC[C@](O)(c2ccc(Cl)cc2)C(C)(C)C1', '16 nM');

###

Test: Antagonist activity at CCR1 receptor in human THP1 cells assessed as inhibition of MPIF1-induced chemotaxis after 60 mins
pIC50: −log10 of the molar value.
Assay endpoint: pIC50

INSERT INTO results (structure_smiles_string, val) VALUES
  ('CC(C)[C@@H](NC(=O)NCC(C)(C)O)C(=O)N1CC[C@](O)(c2ccc(Cl)cc2)C(C)(C)C1', 7.85);

###

Test: Antagonist activity at CCR1 receptor in human THP1 cells assessed as inhibition of HCC1-induced chemotaxis after 60 mins
pIC50: −log10 of the molar value.
Assay endpoint: pIC50

INSERT INTO results (structure_smiles_string, val) VALUES
  ('CC(C)[C@@H](NC(=O)NCC(C)(C)O)C(=O)N1CC[C@](O)(c2ccc(Cl)cc2)C(C)(C)C1', 8.12);

###

Assay: Antagonist activity at CCR1 receptor in human THP1 cells assessed as inhibition of MIP-1alpha induced chemotaxis after 60 mins
pIC50: −log10 of the molar value.
Assay endpoint: pIC50

INSERT INTO results (compound, val) VALUES
  ('CC(C)[C@@H](NC(=O)NCC(C)(C)O)C(=O)N1CC[C@](O)(c2ccc(Cl)cc2)C(C)(C)C1', 8.22),
  ('CC(C)[C@@H](NC(=O)NC[C@@H](C)O)C(=O)N1CC[C@](O)(c2ccc(Cl)cc2)C(C)(C)C1', 8.22),
  ('CC(C)[C@@H](NC(=O)NC1CCCC1)C(=O)N1CC[C@](O)(c2ccc(Cl)cc2)C(C)(C)C1', 8.52),
  ('CC(C)[C@@H](NC(=O)N[C@H]1CC[C@H](O)C1)C(=O)N1CC[C@](O)(c2ccc(Cl)cc2)C(C)(C)C1', 8.00),
  ('CC(C)[C@@H](NC(=O)N[C@@H]1CC[C@@H](O)C1)C(=O)N1CC[C@](O)(c2ccc(Cl)cc2)C(C)(C)C1', 7.72),
  ('CC[C@@H](C)NC(=O)N[C@@H](C(=O)N1CC[C@](O)(c2ccc(Cl)cc2)C(C)(C)C1)C(C)C [US8633226, 897]', 8.22),
  ('CC(C)[C@@H](NC(=O)N[C@@H]1CC[C@H](O)C1)C(=O)N1CC[C@](O)(c2ccc(Cl)cc2)C(C)(C)C1', 8.40),
  ('CC(C)[C@@H](NC(=O)N[C@H]1CC[C@@H](O)C1)C(=O)N1CC[C@](O)(c2ccc(Cl)cc2)C(C)(C)C1', 8.22),
  ('CC(C)[C@@H](NC(=O)NC[C@H](C)O)C(=O)N1CC[C@](O)(c2ccc(Cl)cc2)C(C)(C)C1', 8.15),
  ('CC(C)[C@@H](NC(=O)CCC(C)(C)O)C(=O)N1CC[C@](O)(c2ccc(Cl)cc2)C(C)(C)C1', 7.66);

###

Assay: Antagonist activity at CCR1 receptor in human THP1 cells assessed as inhibition of MIP-1alpha-induced chemotaxis after 60 mins
Assay endpoint: IC50 (nM)

INSERT INTO assay_data (structure_smiles_string, val) VALUES
  ('CC(C)[C@@H](NC(=O)NCC(C)(C)O)C(=O)N1CC[C@](O)(c2ccc(Cl)cc2)C(C)(C)C1', 5.5);

###

Test: Antagonist activity at CCR1 receptor in human THP1 cells assessed as inhibition of RANTES-induced chemotaxis after 60 mins
Assay endpoint: IC50 (nM)

INSERT INTO assay_data (structure_smiles_string, val) VALUES
  ('CC(C)[C@@H](NC(=O)NCC(C)(C)O)C(=O)N1CC[C@](O)(c2ccc(Cl)cc2)C(C)(C)C1', 3.3);
